# key: entry, value: inhibition at 72 h, 0.5 mg/L
test: Phytotoxicity against Zea mays (maize) assessed as inhibition of fresh weight at 0.5 mg/L and at 25 degC/20 degC day/night temperature 14 hr photoperiod for 3 days; assay type: organism-based; conditions: in vivo
assayMetric: inhibition at 72 h, 0.5 mg/L (%)

# molecule, assayMetric, reportedResult
rows = [
    ("C[C@H](Oc1ccc(Cl)cc1Cl)C(=O)O [(S)-DICHLORPROP]", "inhibition at 72 h, 0.5 mg/L", 30.2),
    ("C[C@@H](Oc1ccc(Cl)cc1Cl)C(=O)O [(R)-DICHLORPROP]", "inhibition at 72 h, 0.5 mg/L", 36.7),
    ("CC(Oc1ccc(Cl)cc1Cl)C(=O)O (racemic)", "inhibition at 72 h, 0.5 mg/L", 31.3),
]

These entries and their values trace back to ChEMBL document CHEMBL3045405.
